Each entry below carries its reported protein stability index.
B1: PBXIP1 (parent)
chain: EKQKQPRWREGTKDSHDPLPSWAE

variants of: B1; assay: protein stability index of a GFP-peptide fusion (GPS, HEK-293T) (PSI 1-6); higher = more stable; details: c terminus: a fixed tail appended;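 also: lentivirally expressed fusions sorted by FACS into six bins by GFP to DsRed ratio, PSI derived from sequencing read proportions per bin multiplied by bin number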
Give only the figure.

IN: Which protein stability index reading was recorded for the variant P6D ?
OUT: 2.48
